Reference source: PubChem BioAssay

- Target: Receptor tyrosine-protein kinase erbB-2 (Homo sapiens) (UniProt P04626)
- Sequence (P04626 whole entry, looked up): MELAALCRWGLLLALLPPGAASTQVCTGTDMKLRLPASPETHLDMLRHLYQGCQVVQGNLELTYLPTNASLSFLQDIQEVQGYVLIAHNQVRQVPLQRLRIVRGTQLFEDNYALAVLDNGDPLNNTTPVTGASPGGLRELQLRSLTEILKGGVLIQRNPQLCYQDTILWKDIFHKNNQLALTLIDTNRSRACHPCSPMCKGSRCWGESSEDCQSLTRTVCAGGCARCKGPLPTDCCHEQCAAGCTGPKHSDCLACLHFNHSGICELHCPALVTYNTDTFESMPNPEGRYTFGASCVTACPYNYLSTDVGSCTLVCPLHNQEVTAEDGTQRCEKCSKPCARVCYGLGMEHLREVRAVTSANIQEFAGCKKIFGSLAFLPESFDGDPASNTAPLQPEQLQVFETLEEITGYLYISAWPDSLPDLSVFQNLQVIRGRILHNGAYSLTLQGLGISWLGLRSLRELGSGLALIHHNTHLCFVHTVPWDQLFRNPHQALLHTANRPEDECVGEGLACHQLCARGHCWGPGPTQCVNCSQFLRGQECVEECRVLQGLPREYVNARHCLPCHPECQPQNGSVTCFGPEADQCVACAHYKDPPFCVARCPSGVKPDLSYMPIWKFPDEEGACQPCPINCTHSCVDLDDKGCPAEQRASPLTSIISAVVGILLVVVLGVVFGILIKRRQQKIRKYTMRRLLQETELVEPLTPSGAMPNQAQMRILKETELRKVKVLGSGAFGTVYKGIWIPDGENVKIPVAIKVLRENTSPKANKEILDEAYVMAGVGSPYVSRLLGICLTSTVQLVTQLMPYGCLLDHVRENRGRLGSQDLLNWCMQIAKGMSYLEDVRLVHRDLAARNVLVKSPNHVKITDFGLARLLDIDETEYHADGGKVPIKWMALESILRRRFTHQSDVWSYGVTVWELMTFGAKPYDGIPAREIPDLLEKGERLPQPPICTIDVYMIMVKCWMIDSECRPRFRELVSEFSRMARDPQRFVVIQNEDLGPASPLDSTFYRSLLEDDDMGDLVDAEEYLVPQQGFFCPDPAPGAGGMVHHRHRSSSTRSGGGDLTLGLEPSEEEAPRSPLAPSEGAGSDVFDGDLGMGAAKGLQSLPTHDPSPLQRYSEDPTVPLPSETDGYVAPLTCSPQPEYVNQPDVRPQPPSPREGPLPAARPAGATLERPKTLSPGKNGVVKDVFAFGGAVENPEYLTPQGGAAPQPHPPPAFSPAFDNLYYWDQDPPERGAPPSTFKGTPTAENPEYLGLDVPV
- Assay protocol: reducers of endogenous Her2 protein level, primary screen, SKBR3 breast tumor cells, AlphaScreen, ATP viability (AID 461);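 further: lower value means less Her2 protein in the cells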
- Test conditions: 18-24 h, at 10 µM
The source made the active and inactive calls.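 How the source made its calls: active means Her2 level under about 52% in both replicate screens, with viability over 70% of control (limit read from the data); inconclusive means Her2 under the limit in one screen only, or viability under 70%; inactive means Her2 level above the set limit.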
Choose one outcome from this list and give only that: true (active), false (inactive)

Worked examples follow.
1) c1coc(-c2nnc(NC3=NCCC3)o2)c1
false
2) COc1ccc(-n2c(SCc3ccc(C#N)cc3)nnc2-c2ccccn2)cc1
false
3) CCOc1ccc(C(=O)OCc2nnc(-c3cccs3)o2)cc1OC
false
4) O=C(CCOc1ccccc1)NCc1ccccc1
false
5) CCOC(=O)N1CCN(c2c(NCCCOC(C)C)c(=O)c2=O)CC1
false
6) Cc1ncc([N+](=O)[O-])n1CC(O)CCl (configuration not stated)
false
7) CCOc1ccc(OCC)c(NC(=O)CCCN2C(=O)c3cccnc3C2=O)c1
false
8) COc1ccc(C)cc1S(=O)(=O)Nc1cccnc1
false
9) CCOC(=O)c1oc2ccccc2c1CSc1nnnn1-c1ccc(OC)cc1
false
10) C/C(N)=C(/C#N)C(=O)COC(=O)COc1ccc(Cl)cc1
false

Dear colleague, could you share the recorded outcome for `N#Cc1c(NC(=O)CSc2nnnn2C2CCCC2)sc2c1CCCC2` when you have a moment?
false

Dear colleague, could you share the recorded outcome for `COc1ccc(CCn2c(C)cc(C(=O)CSc3nnnn3C)c2C)cc1` when you have a moment?
false

Dear colleague, could you share the recorded outcome for `CCn1c(=O)c(=O)[nH]c2cc(C(=O)N3CCN(c4ccccc4F)CC3)ccc21` when you have a moment?
false

Dear colleague, could you share the recorded outcome for `CC(C)(C)C(=O)Cn1c(=N)n(Cc2ccccc2)c2ccccc21` when you have a moment?
false
